# ASSAY_DETAILS: mn = molality of the nth substance listed, in mol/kg
# APPLIED_CONDITIONS: 308.15 K; 101 kPa; Liquid; Sing-around technique in a fixed-path interferometer; m1 = 0.7
PROPERTY_NAME: speed of sound (m/s)
Answers are plain numbers, in m/s.

Known results for molecules:
O=P(O)(O)O [phosphoric acid] + O :: 1523
O=P([O-])(O)O.[Li+] [lithium dihydrogen phosphate] + O :: 1582.6
O=P([O-])([O-])O.[Na+].[Na+] [disodium hydrogen phosphate] + O :: 1646.2

Given the entry O=P([O-])([O-])[O-].[K+].[K+].[K+] [tripotassium phosphate] + O , report its measured speed of sound.
1671.9
